The following compounds are shown together with reported CC50 at 3 days values.
- test: in vitro
- Type: cell-based
- experimental-setup: human, HepG2 or HepG2.117 cells, ATPlite, 3-days incubation (not marked with *), mean value
Numeric only. Scale: µM

Check out these entries, answers already filled in.
CC[C@@H](C)Oc1nc2c(c(=O)n1-c1ccc(C(=O)NC)cc1)C[C@@H](C)N(C(=O)c1ccc(Cl)c(Cl)c1)C2 [Compound C397] : 25.2
CNC(=O)c1ccc(-n2c(NCc3csc(C4CC4)n3)nc3c(c2=O)C[C@@H](C)N(C(=O)c2ccc(Cl)c(Cl)c2)C3)cc1 [Compound C490] : 28.4

Next item in the queue.
Query: Fill in: CC50 at 3 days of CNC(=O)c1ccc(-n2c(NC(C)C)nc3c(c2=O)C[C@@H](C)N(C(=O)c2cc4c(OC(F)(F)F)cccc4[nH]2)C3)cc1 [Compound C587] is ___
Reply: 9.2

###

- Tested on: HepG2 cells
- test: in vitro
- Assay type: cell-based
- experimental-setup: 3-days incubation (unmarked values); HepG2 or HepG2.117 cells, ATPlite; mean value; read-out: CC50 (μM, mean value)
metric: CC50

Query: Fill in: CC50 of COc1ccc(CNc2nc3c(c(=O)n2-c2ccccc2OC)C[C@H](C)N(C(=O)c2ccc(Cl)c(Cl)c2)C3)cc1 (single isomer, unassigned) [Compound C36Bb] is ___
Reply: > 50 µM

Query: // repeat for Cc1cc(-n2cccn2)ccc1-n1c(NC(C)C)nc2c(c1=O)C[C@@H](C)N(C(=O)c1ccc(Cl)c(Cl)c1)C2 (single isomer, unassigned) [Compound C308b] and report
Reply: > 50 µM

Query: // repeat for CNC(=O)c1ccc(-n2c(NC(C)C)nc3c(c2=O)C[C@@H](C)N(C(=O)c2ccc(Cl)c(Cl)c2)C3)c(C)c1 [Compound C300b] and report
Reply: > 50 µM

Query: // repeat for CC(C)Nc1nc2c(c(=O)n1-c1ccc(S(C)(=O)=O)cc1)C[C@@H](C)N(C(=O)c1ccc(Cl)c(Cl)c1)C2 [Compound C142] and report
Reply: > 50 µM

Query: // repeat for CNC(=O)c1ccc(-n2c(NC(C)C)nc3c(c2=O)C[C@@H](C)N(C(=O)c2ccc(Cl)c(Cl)c2)C3)c(Cl)c1 (atropisomer, axis not shown) [Compound C293b] and report
Reply: 27.1 µM

Query: // repeat for COc1ccc(CNc2nc3c(c(=O)n2-c2ccccc2OC)C[C@H](C)N(C(=O)c2ccc(Cl)c(Cl)c2)C3)cc1 (single isomer, unassigned) [Compound C36Ba] and report
Reply: > 50 µM

Query: // repeat for COc1ccccc1-n1c(N[C@H](C)C(F)(F)F)nc2c(c1=O)CCN(C(=O)c1ccc(Cl)c(Cl)c1)C2 (single isomer, unassigned) [Compound C101b] and report
Reply: 33.2 µM

###

- Tested on: HepG2 cells
- test: in vitro
- Format: cell-based
- experimental-setup: HepG2 or HepG2.117 cells, ATPlite, 3-days incubation (not marked with *), mean value; read-out: CC50 (μM, mean value)
metric: CC50 (µM)
Numeric only. Scale: µM

CNC(=O)c1ccc(-n2c(NC(C)C)nc3c(c2=O)C[C@@H](C)N(C(=O)c2ccc(Cl)c(C(F)(F)F)c2)C3)c(Cl)c1 (single isomer, unassigned) [Compound C639b] : 25.4
CNC(=O)c1ccc(-n2c(NC(C)C)nc3c(c2=O)C[C@@H](C)N(C(=O)c2ccc(Cl)c(Cl)c2)C3)c(C(C)C)c1 (single isomer, unassigned) [Compound C420b] : 23.5

Next item in the queue.
Query: Fill in: CC50 of Cc1cc(-c2ncc[nH]2)ccc1-n1c(NC(C)C)nc2c(c1=O)C[C@@H](C)N(C(=O)c1ccc(Cl)c(Cl)c1)C2 (single isomer, unassigned) [Compound C399a] is ___
Reply: 27.7
